# Test system: bone marrow stem cells
# EXPERIMENT_NOTES: bone marrow stem cell proliferation (XTT)
# Format: cell-based, C57/BL6 mice
# APPLIED_CONDITIONS: lowest concentration inducing a significant proliferation
We begin with a simple list: items and their reported Min concentration.
OBSERVATION_TYPE: Min concentration (µg/mL)

{"columns": ["COMPOUND", "RESULT_UNIT", "RESULT"],
 "data": [
  ["CCCCCCCCCCCC(=O)O[C@H](CCCCCCCCCCC)CC(=O)N[C@H](CC(=O)O)C(=O)NCCC[C@H](COC(=O)CCCCCNC(=O)CCC(=O)O)NC(=O)C[C@H](O)CCCCCCCCCCC", "µg/mL", 2.04],
  ["CCCCCCCCCCCC(=O)O[C@H](CCCCCCCCCCC)CC(=O)N[C@H](CC(=O)O)C(=O)NCCC[C@H](COP(=O)(O)O)NC(=O)C[C@H](O)CCCCCCCCCCC", "µg/mL", 0.77],
  ["CCCCCCCCCCCC(=O)O[C@H](CCCCCCCCCCC)CC(=O)N[C@H](CC(=O)N[C@@H](CC(=O)O)C(=O)O)C(=O)NCCC[C@H](CO)NC(=O)C[C@H](O)CCCCCCCCCCC", "µg/mL", 1.89],
  ["CCCCCCCCCCCC(=O)O[C@H](CCCCCCCCCCC)CC(=O)NC(CCOP(=O)(O)O)C(=O)NCCCC(COC(=O)CCCCCO)NC(=O)C[C@H](O)CCCCCCCCCCC (some centres unmarked)", "µg/mL", 1.24],
  ["CCCCCCCCCCCC(=O)O[C@H](CCCCCCCCCCC)CC(=O)N[C@H](CC(=O)N[C@@H](CC(=O)O)C(=O)O)C(=O)NCCC[C@H](COC(=O)CCCCCN)NC(=O)C[C@H](O)CCCCCCCCCCC", "µg/mL", 1.27]
]}
